Entry source: patent US20050209157A1

- Assay Details: in vitro
- Test Context: human, WI38 normal lung fibroblast cells, WI-38 LD50, Table 26, valine substitution
No end group written: not given here.
Readout Kind: log10 of CC50 at 24 h (log10 of the value in µg/mL)

# Substance, log10 of CC50 at 24 h
data = [
    ("FAKLLAKALKKLL-NH2 [compound 55]", 1.51),
    ("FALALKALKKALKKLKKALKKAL-NH2 [compound 2]", 1.82),
    ("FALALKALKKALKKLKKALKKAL-OH [compound 1]", 1.43),
    ("FALALKALKKLLKKLKKLAKKAL-NH2 [compound 24]", 1.74),
    ("VAKFLAKFLKKAL-NH2 [compound 502]", 1.81),
    ("VALALKALKKL-NH2 [compound 180]", 3.00),
]

----------
- Assay Details: in vitro
- Test Context: human, WI38 normal lung fibroblast cells, LD50 WI38, WI38 normal lung fibroblast line, MTT, 24 hours with peptide
No end group written: not given here.
Readout Kind: CC50 at 24 h (µg/mL)

# Substance, Readout Kind, Value
records = [
    ("FAKKLAKKLKKLAKKLIGAVLKV-OH [SHIVA 11 [(1-16)ME(2-9]-COOH]", "CC50 at 24 h", 34),
    ("FAKFLAKFLKKAL-NH2 [P111, FAKFLAKFLKKAL-NH2]", "CC50 at 24 h", 24),
    ("FAKLLAKALKKAL-NH2 [P102, FAKLLAKALKKAL-NH2]", "CC50 at 24 h", 73),
    ("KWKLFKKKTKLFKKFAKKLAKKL-NH2 [P73]", "CC50 at 24 h", 160),
    ("FAKLLAKLAKKLL-NH2 [P43]", "CC50 at 24 h", 5),
    ("FAKLLAKLAK-NH2 [P123]", "CC50 at 24 h", 600),
    ("KKVVFKVKFK-NH2 [P302, reference compound]", "CC50 at 24 h", 800),
    ("FAKLAKKALAKLL-NH2 [P148]", "CC50 at 24 h", 380),
    ("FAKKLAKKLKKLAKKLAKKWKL-OH [P72]", "CC50 at 24 h", 125),
    ("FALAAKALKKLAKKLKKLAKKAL-NH2 [P23]", "CC50 at 24 h", 34),
    ("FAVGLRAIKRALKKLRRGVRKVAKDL-NH2 [P157, reference compound]", "CC50 at 24 h", 500),
    ("FALLKALLKKAL-NH2 [P177, FALLKALLKKAL-NH2]", "CC50 at 24 h", 270),
    ("FAKLFAKLAKKFAL-NH2 [P121, FAKLFAKLAKKFAL-NH2]", "CC50 at 24 h", 625),
    ("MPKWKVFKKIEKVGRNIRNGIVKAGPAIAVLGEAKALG-NH2 [P12, reference compound]", "CC50 at 24 h", 950),
    ("FAKLWAKLAFGKGIGKVGKKLL-NH2 [P135]", "CC50 at 24 h", 110),
    ("GIGKFLHAAKKFAKAFVAEIMNS-NH2 [P300, reference compound]", "CC50 at 24 h", 52),
    ("VAKLLAKLAKKVL-NH2 [P154]", "CC50 at 24 h", 600),
    ("FKVKFKVKVK-NH2 [P303, reference compound]", "CC50 at 24 h", 355),
    ("FALALKKALKALKKAL-NH2 [P34]", "CC50 at 24 h", 40),
    ("FAKALAKLAKKLL-NH2 [P92]", "CC50 at 24 h", 43),
    ("FAKKLAKKLAKLAL-NH2 [P45, FAKKLAKKLAKLAL-NH2]", "CC50 at 24 h", 200),
    ("VALALKALKKLAKKLKKLAKKAL-NH2 [FLAK04 AM V]", "CC50 at 24 h", 95),
    ("KWKLFKKIGAVLKVL-NH2 [P53, reference compound]", "CC50 at 24 h", 32),
    ("FAKKLAKKLAKLL-NH2 [P75]", "CC50 at 24 h", 80),
]

----------
- Test system: S. epidermidis C621
- Assay type: cell-based, Staphylococcus epidermidis
- Test Context: Table 13; in µg/mL
No end group written: not given here.
Readout Kind: MIC S. epidermis C621

# Substance, Study Target, Readout Kind, Value
rows = [
    ("FAKKLAKKLL-NH2 [P59 (39)]", "S. epidermidis C621", "MIC S. epidermis C621", 8),
    ("FAKLLAKLAKKVL-NH2 [P124 (86)]", "S. epidermidis C621", "MIC S. epidermis C621", 4),
    ("FAKKLAKKLAKLAL-NH2 [P45 (27)]", "S. epidermidis C621", "MIC S. epidermis C621", 16),
    ("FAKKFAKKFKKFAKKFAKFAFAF-NH2 [P301 (147)]", "S. epidermidis C621", "MIC S. epidermis C621", 4),
    ("FAKKLAKLALKLAKL-NH2 [P44 (26)]", "S. epidermidis C621", "MIC S. epidermis C621", 4),
    ("FALALKALKKLKKALKKAL-NH2 [P27 (12)]", "S. epidermidis C621", "MIC S. epidermis C621", 4),
    ("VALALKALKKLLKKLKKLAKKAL-NH2 [P510 (161)]", "S. epidermidis C621", "MIC S. epidermis C621", 4),
    ("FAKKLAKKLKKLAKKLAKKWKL-OH [P72 (48)]", "S. epidermidis C621", "MIC S. epidermis C621", 4),
    ("FAKLLAKLAKKLL-NH2 [P43 (25)]", "S. epidermidis C621", "MIC S. epidermis C621", 2),
    ("FAKLLALALKKAL-NH2 [P97 (165)]", "S. epidermidis C621", "MIC S. epidermis C621", 4),
    ("KYKKALKKLAKLL-NH2 [P146 (108)]", "S. epidermidis C621", "MIC S. epidermis C621", 8),
    ("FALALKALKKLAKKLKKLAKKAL-NH2 [P25 (10)]", "S. epidermidis C621", "MIC S. epidermis C621", 4),
    ("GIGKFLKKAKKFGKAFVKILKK-NH2 [P42 (24)]", "S. epidermidis C621", "MIC S. epidermis C621", 2),
    ("FAKLLAKALKKFAL-NH2 [P119 (81)]", "S. epidermidis C621", "MIC S. epidermis C621", 4),
    ("FAKLLAKALKKLL-NH2 [P55 (35)]", "S. epidermidis C621", "MIC S. epidermis C621", 2),
    ("FALKALKKLKKALKKAL-NH2 [P153 (115)]", "S. epidermidis C621", "MIC S. epidermis C621", 4),
    ("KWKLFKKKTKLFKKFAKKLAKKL-NH2 [P73 (49)]", "S. epidermidis C621", "MIC S. epidermis C621", 4),
    ("FAKFLAKFLKKAL-NH2 [P111 (75)]", "S. epidermidis C621", "MIC S. epidermis C621", 4),
    ("FALLKALLKKAL-NH2 [P177 (138)]", "S. epidermidis C621", "MIC S. epidermis C621", 4),
]

----------
- Tested on: Stapholococcus aureus ATCC 25923
- Assay Details: Antimicrobial assay I, modified protocol (tryptic soy broth), MBC
- Test Context: minimum bactericidal concentration, Table 4
No end group written: not given here.
Exam item: assign 1 to entries whose MBC S. aur A.25923 is below 20 µg/mL and 0 to entries at or above 20 µg/mL. Note that a value of exactly 20 µg/mL receives 0.

# Substance, Answer Label
records = [
    ("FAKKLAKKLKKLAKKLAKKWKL-NH2 [compound 70]", 0),
    ("FAKLLALALKLKL-NH2 [compound 94]", 0),
    ("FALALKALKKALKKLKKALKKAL-OH [compound 1]", 0),
    ("FAKKLAKKLAKAL-NH2 [compound 74]", 0),
    ("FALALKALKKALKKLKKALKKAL-NH2 [compound 2]", 0),
    ("FAKLLAKLAKKVL-NH2 [compound 124]", 1),
    ("FALALKALKKLKKALKKAL-NH2 [compound 27]", 1),
    ("FAKLLALALKKAL-NH2 [compound 97]", 0),
    ("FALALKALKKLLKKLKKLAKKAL-NH2 [compound 24]", 0),
    ("FALALKALKKL-NH2 [compound 165]", 0),
    ("FALALKALKKAL-NH2 [compound 144]", 0),
    ("FAKLLAKLAKKLL-NH2 [compound 43]", 1),
    ("FAKFLAKFLKKAL-NH2 [compound 111]", 0),
    ("FAKLLAKALKKL-NH2 [compound 103]", 0),
    ("FALAKLAKKAKAKLKKALKAL-NH2 [compound 26]", 0),
    ("FAKKLAKLAKKLLAL-NH2 [compound 38]", 1),
    ("FAKLLAKALKKLL-NH2 [compound 55]", 1),
]
